Exercise: state measured viability, T/C for each of the molecules provided.
system: 126254-015-R-J1-PDC complex spheroid growth, % test/control; test: Anticancer human tumor 126254-015-R-J1-PDC patient-derived soft tissue sarcoma cell line growth inhibition [Asc]; conditions: second compound 1 µM; first compound 1 µM; stronger effect = lower value
Answers are plain numbers, in %.

Example cases with answers are listed next.
C=CC(=O)N1CCN(c2nc(=O)n(-c3c(C)ccnc3C(C)C)c3nc(-c4c(O)cccc4F)c(F)cc23)C(C)C1 (stereo not given) + CNC(C)C(=O)NC1CN(S(=O)(=O)c2cccc(S(=O)(=O)N3CCC4CCC(C(=O)NC(c5ccccc5)c5ccccc5)N4C(=O)C(NC(=O)C(C)NC)C3)c2)CCC2CCC(C(=O)NC(c3ccccc3)c3ccccc3)N2C1=O : 72
CCN1CCN(Cc2ccc(Nc3ncc(F)c(-c4cc(F)c5nc(C)n(C(C)C)c5c4)n3)nc2)CC1 + Cc1c(S(C)(=O)=O)c(-c2cc(F)cc(N3CCN(c4ccc(NS(=O)(=O)c5ccc(NC(CCN6CCC(C(=O)OCCCP(=O)(O)O)CC6)CSc6ccccc6)c(S(=O)(=O)C(F)(F)F)c5)cc4)CC3)c2)c(-c2ccc(Cl)cc2)n1C(C)C : 73.3
C=CC(=O)N1CCN(c2nc(=O)n(-c3c(C)ccnc3C(C)C)c3nc(-c4c(O)cccc4F)c(F)cc23)C(C)C1 (stereo not given) + Cc1c(S(C)(=O)=O)c(-c2cc(F)cc(N3CCN(c4ccc(NS(=O)(=O)c5ccc(NC(CCN6CCC(C(=O)OCCCP(=O)(O)O)CC6)CSc6ccccc6)c(S(=O)(=O)C(F)(F)F)c5)cc4)CC3)c2)c(-c2ccc(Cl)cc2)n1C(C)C : 93
COc1c(OCCCN2CCOCC2)ccc2c3n(c(=NC(=O)c4cnc(N)nc4)nc12)CCN3 + CNC(C)C(=O)NC1CN(S(=O)(=O)c2cccc(S(=O)(=O)N3CCC4CCC(C(=O)NC(c5ccccc5)c5ccccc5)N4C(=O)C(NC(=O)C(C)NC)C3)c2)CCC2CCC(C(=O)NC(c3ccccc3)c3ccccc3)N2C1=O : 9.01

# ---- query molecule ----
Quick one: give measured viability, T/C for COc1c(OCCCN2CCOCC2)ccc2c3n(c(=NC(=O)c4cnc(N)nc4)nc12)CCN3 + Cc1c(S(C)(=O)=O)c(-c2cc(F)cc(N3CCN(c4ccc(NS(=O)(=O)c5ccc(NC(CCN6CCC(C(=O)OCCCP(=O)(O)O)CC6)CSc6ccccc6)c(S(=O)(=O)C(F)(F)F)c5)cc4)CC3)c2)c(-c2ccc(Cl)cc2)n1C(C)C 8.15

###

Exercise: state measured IC50 for each of the compounds provided.
test system: 126254-015-R-J1-PDC complex spheroid growth, % test/control; assay: Anticancer human tumor 126254-015-R-J1-PDC cell line growth inhibition [Asc]; details: curve of compound;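 further: spheroids exposed to compound for seven days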

Example cases with answers are listed next.
CCN1CCN(Cc2ccc(Nc3ncc(F)c(-c4cc(F)c5nc(C)n(C(C)C)c5c4)n3)nc2)CC1 : > 1 µM
CCN1C(C(=O)NC23CCC(C(=O)O)(CC2)CC3)C(c2cccc(Cl)c2F)C2(C(=O)Nc3cc(Cl)ccc32)C12CCCCC2 (centres undefined) : > 3 µM
C=CC(=O)N1CCN(c2nc(=O)n(-c3c(C)ccnc3C(C)C)c3nc(-c4c(O)cccc4F)c(F)cc23)C(C)C1 (centres undefined) : > 10 µM

# ---- query compound ----
Quick one: give measured IC50 for O=C(c1cc(Cc2n[nH]c(=O)c3ccccc23)ccc1F)N1CCN(C(=O)C2CC2)CC1 > 10 µM

###

tested on: 126254-015-R-J1-PDC complex spheroid growth, % test/control; test: Anticancer human tumor 126254-015-R-J1-PDC cell line growth inhibition [Asc]; settings: second compound 0.01 µM; first compound 0.00316 µM; stronger effect = lower value;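 further: spheroids exposed to compound for seven days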;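 on viability, T/C: 100% = DMSO vehicle control wells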
recordedMetric: viability, T/C (%)
One number for each entry, in %.

Example cases with answers are listed next.
O=C(c1ccc(F)c(F)c1Nc1ccc(I)cc1F)N1CC(O)([C@@H]2CCCCN2)C1 + CNC(C)C(=O)NC1CN(S(=O)(=O)c2cccc(S(=O)(=O)N3CCC4CCC(C(=O)NC(c5ccccc5)c5ccccc5)N4C(=O)C(NC(=O)C(C)NC)C3)c2)CCC2CCC(C(=O)NC(c3ccccc3)c3ccccc3)N2C1=O : 82.4
NC1CCC(NC2CC2c2ccccc2)CC1 (stereo not given) + CNC(C)C(=O)NC1CN(S(=O)(=O)c2cccc(S(=O)(=O)N3CCC4CCC(C(=O)NC(c5ccccc5)c5ccccc5)N4C(=O)C(NC(=O)C(C)NC)C3)c2)CCC2CCC(C(=O)NC(c3ccccc3)c3ccccc3)N2C1=O : 87.1
CCN1CCN(Cc2ccc(Nc3ncc(F)c(-c4cc(F)c5nc(C)n(C(C)C)c5c4)n3)nc2)CC1 + CNC(C)C(=O)NC1CN(S(=O)(=O)c2cccc(S(=O)(=O)N3CCC4CCC(C(=O)NC(c5ccccc5)c5ccccc5)N4C(=O)C(NC(=O)C(C)NC)C3)c2)CCC2CCC(C(=O)NC(c3ccccc3)c3ccccc3)N2C1=O : 94.4
Cn1ncnc1[C@H]1c2n[nH]c(=O)c3cc(F)cc(c23)N[C@@H]1c1ccc(F)cc1 + CNC(C)C(=O)NC1CN(S(=O)(=O)c2cccc(S(=O)(=O)N3CCC4CCC(C(=O)NC(c5ccccc5)c5ccccc5)N4C(=O)C(NC(=O)C(C)NC)C3)c2)CCC2CCC(C(=O)NC(c3ccccc3)c3ccccc3)N2C1=O : 78.2

# ---- query molecule ----
Quick one: give measured viability, T/C for COc1c(OCCCN2CCOCC2)ccc2c3n(c(=NC(=O)c4cnc(N)nc4)nc12)CCN3 + CNC(C)C(=O)NC1CN(S(=O)(=O)c2cccc(S(=O)(=O)N3CCC4CCC(C(=O)NC(c5ccccc5)c5ccccc5)N4C(=O)C(NC(=O)C(C)NC)C3)c2)CCC2CCC(C(=O)NC(c3ccccc3)c3ccccc3)N2C1=O 84.8

###

Exercise: state measured viability, T/C for each of the compounds provided.
tested on: 126254-015-R-J1-PDC complex spheroid growth, % test/control; assay: Anticancer human tumor 126254-015-R-J1-PDC cell line growth inhibition [Asc]; settings: second compound 0.316 µM; first compound 0.1 µM; stronger effect = lower value;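 further: spheroids exposed to compound for seven days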;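 on viability, T/C: 100% = DMSO vehicle control wells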
Numbers only, in %.

Example cases with answers are listed next.
C=C(F)C(=O)N1CCN(c2nc(OCC3CCCN3C)nc3c2CCN(c2cccc4cccc(Cl)c24)C3)CC1CC#N (stereo not drawn) + CNC(C)C(=O)NC1CN(S(=O)(=O)c2cccc(S(=O)(=O)N3CCC4CCC(C(=O)NC(c5ccccc5)c5ccccc5)N4C(=O)C(NC(=O)C(C)NC)C3)c2)CCC2CCC(C(=O)NC(c3ccccc3)c3ccccc3)N2C1=O : 66.1
C=CC(=O)N1CCN(c2nc(=O)n(-c3c(C)ccnc3C(C)C)c3nc(-c4c(O)cccc4F)c(F)cc23)C(C)C1 (stereo not drawn) + CNC(C)C(=O)NC1CN(S(=O)(=O)c2cccc(S(=O)(=O)N3CCC4CCC(C(=O)NC(c5ccccc5)c5ccccc5)N4C(=O)C(NC(=O)C(C)NC)C3)c2)CCC2CCC(C(=O)NC(c3ccccc3)c3ccccc3)N2C1=O : 77.2

# ---- query compound ----
Quick one: give measured viability, T/C for C#Cc1c(F)ccc2cc(O)cc(-c3ncc4c(N5CC6CCC(C5)N6)nc(OCC56CCCN5CC(F)C6)nc4c3F)c12 (stereo not drawn) + Cc1c(S(C)(=O)=O)c(-c2cc(F)cc(N3CCN(c4ccc(NS(=O)(=O)c5ccc(NC(CCN6CCC(C(=O)OCCCP(=O)(O)O)CC6)CSc6ccccc6)c(S(=O)(=O)C(F)(F)F)c5)cc4)CC3)c2)c(-c2ccc(Cl)cc2)n1C(C)C 86

###

Exercise: state measured viability, T/C for each of the compounds provided.
test system: 126254-015-R-J1-PDC complex spheroid growth, % test/control; experiment: Anticancer human tumor 126254-015-R-J1-PDC cell line growth inhibition [Asc]; settings: second compound 0.949 µM; first compound 0.316 µM; stronger effect = lower value;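 further: spheroids exposed to compound for seven days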;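 on viability, T/C: 100% = DMSO vehicle control wells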
Numbers only, in %.

CNC(C)C(=O)NC1CN(S(=O)(=O)c2cccc(S(=O)(=O)N3CCC4CCC(C(=O)NC(c5ccccc5)c5ccccc5)N4C(=O)C(NC(=O)C(C)NC)C3)c2)CCC2CCC(C(=O)NC(c3ccccc3)c3ccccc3)N2C1=O (centres undefined) + CCN1C(C(=O)NC23CCC(C(=O)O)(CC2)CC3)C(c2cccc(Cl)c2F)C2(C(=O)Nc3cc(Cl)ccc32)C12CCCCC2 : 58
O=C(c1ccc(F)c(F)c1Nc1ccc(I)cc1F)N1CC(O)([C@@H]2CCCCN2)C1 + CCN1C(C(=O)NC23CCC(C(=O)O)(CC2)CC3)C(c2cccc(Cl)c2F)C2(C(=O)Nc3cc(Cl)ccc32)C12CCCCC2 : 63.5
O=C(c1cc(Cc2n[nH]c(=O)c3ccccc23)ccc1F)N1CCN(C(=O)C2CC2)CC1 + CCN1C(C(=O)NC23CCC(C(=O)O)(CC2)CC3)C(c2cccc(Cl)c2F)C2(C(=O)Nc3cc(Cl)ccc32)C12CCCCC2 : 93.6

Quick one: give measured viability, T/C for COc1c(OCCCN2CCOCC2)ccc2c3n(c(=NC(=O)c4cnc(N)nc4)nc12)CCN3 + CCN1C(C(=O)NC23CCC(C(=O)O)(CC2)CC3)C(c2cccc(Cl)c2F)C2(C(=O)Nc3cc(Cl)ccc32)C12CCCCC2 15.6
